All values here come from ChEMBL document CHEMBL1201862.

system: RPMI-8226; experiment: NCI tumour cell line growth inhibition, 48 h
Active and inactive are the calls of the source. No stated cut-off is given here; in the data, active = GI50 up to about 1.1 µM and inactive = higher.
Classes to choose from: active, inactive

>>> label("O=C1C=CC(=O)c2c(O)c(N3CCN(c4ccccn4)CC3)cc(O)c21")
"inactive"

input: State the result this test recorded for C=C1NC(=O)C(CC(C(=O)C(=O)Nc2c(C)cccc2C(C)(C)C)C(=O)c2ccc3ccccc3c2)C(=O)N1 (configuration not stated) .
output: inactive

input: For `Cc1nc(N)c(N2CCN(S(=O)(=O)N(Cc3ccccc3)Cc3ccccc3)CC2)c(O)n1` then?
output: inactive

input: Also need `COCN1C(=O)[C@@H]2CCCN2C(=O)c2ccc([N+](=O)[O-])cc21` , thanks.
output: inactive

----------
system: SK-MEL-2; assay: NCI tumour cell line growth inhibition, 48 h
The source made the active and inactive calls. Rule as the data show it: active = GI50 up to about 1.1 µM and inactive = higher.
metricName: GI50

input: Can you look up the measured GI50 of C=C1NC(=O)C(CC(C(=O)C(=O)Nc2c(C)cccc2C(C)(C)C)C(=O)c2ccc3ccccc3c2)C(=O)N1 (stereo not given) for me?
output: > 100 µM (inactive)

----------
system: SNB-19; assay: NCI tumour cell line growth inhibition, 48 h
The source made the active and inactive calls. Cut-off read from the data, not from the text of the source: active = GI50 up to about 1.1 µM and inactive = higher. Where a SMILES comes first, the peptide text is derived from it. Square brackets hold non-standard residues; d marks the D form. Peptide text beside a SMILES is read from it.
Hi! Could you answer with just one of these? yes (active), no (inactive)

// below: answered molecules
>>> label("Sc1nnc(Cc2ccc(Cl)cc2)[nH]1")
"no"
>>> label("CC1=C(N2CC2)C(=O)C(CO)=C(N2CC2)C1=O")
"yes"
>>> label("CC(C)C[C@H](NC(=O)[C@H](CC(C)C)NC(=O)[C@@H](Cc1c[nH]c2ccccc12)NC(=O)[C@H](Cc1ccccc1)NC(=O)[C@@H](Cc1c[nH]c2ccccc12)NC(=O)[C@H](CCC(N)=O)NC(=O)[C@@H](CCC(N)=O)NC(=O)[C@@H]1CCCN1C(=O)[C@@H](CCCCN)NC(=O)[C@H]1CCCN1C(=O)[C@H](N)CCCN=C(N)N)C(N)=O (H-[dR][dP][dK]P[dQ]Q[dW]F[dW]LL-NH2)")
"no"
>>> label("CC(C)NCCCNc1c2ccccc2nc2cccc([N+](=O)[O-])c12")
"yes"
>>> label("C=C[C@@H](OCOCC[Si](C)(C)C)[C@@H](CC)OC(CCCOC(=O)C(C)(C)C)OC (some centres undefined)")
"no"
>>> label("CC1NC(=O)CNC(=O)CNC(=O)C(Cc2ccc(O)cc2)NC(=O)C(C(C)C)NC(=O)C(C)NC1=O (centres undefined) (cyclo(GGAAVY); configuration not given here)")
"no"
>>> label("COC(=O)Cc1c(C2C(CC(=O)OC)c3ccccc3N2C2OC(CO)C(O)C(O)C2O)[nH]c2ccccc12 (centres undefined)")
"no"
>>> label("COC12C=CC(CC1)C1C(=O)c3c(C)c(C)n(C)c3C(=O)C12 (centres undefined)")
"no"

input: Recorded test outcome, item N#CNCC(COCc1ccccc1)c1ccccc1 (centres undefined)
output: no

----------
molecules and their reported GI50
system: DMS-273; experiment: NCI tumour cell line growth inhibition, 48 h
The source made the active and inactive calls. Cut-off read from the data, not from the text of the source: active = GI50 up to about 1.1 µM and inactive = higher.

>>> testresult("N#CNCC(COCc1ccccc1)c1ccccc1 (centres undefined)")
"94.4 µM (inactive)"

input: # get_value(readout='GI50', item= `O=C(CCN(C(=O)O)S(=O)(=O)c1ccc(NC(=O)c2ccccc2)cc1)Nc1ccccc1` )
output: > 65.3 µM (inactive)

input: Now consider CCOc1ccccc1NC(=O)CC1Sc2ccccc2NC1=O (centres undefined) .
output: 48.6 µM (inactive)

input: Item: `O=c1c2c(-c3ccccc3)c3ccccc3nc2cnn1-c1ccccc1`
output: > 100 µM (inactive)

input: Request: CN1CCC(SC2Cc3cc(Cl)ccc3Sc3ccccc32)CC1 (centres undefined)
output: 12.5 µM (inactive)

input: Then `O=c1c2ccc3cccc4c(=O)cc(c5ccccc15)-c2c34` ?
output: > 100 µM (inactive)

input: Next record, please: `CC(C)c1cc2c(O)c(c1)Cc1cc(C(C)C)cc(c1O)Cc1cc(C(C)C)cc(c1O)Cc1cc(C(C)C)cc(c1O)Cc1cc(C(C)C)cc(c1O)Cc1cc(C(C)C)cc(c1O)C2`
output: > 100 µM (inactive)

input: Entry COc1cc([C@@H]2c3cc4c(cc3[C@@H](NCc3cccc(F)c3)C3COC(=O)[C@@H]32)OCO4)cc(OC)c1O (some centres undefined) please
output: 2.21 µM (inactive)

input: For C[C@@H](CC(O)C1OC1(C)C)[C@@H]1CC[C@]2(C)C3=CCC4C(C)(C)C(O)CC[C@]4(C)C3CCC12C (some centres undefined) then?
output: 13.3 µM (inactive)
